- runDescription: in vitro cytotoxicity against mammalian cells (L6)
- Assay type: cell-based, rat
- runConditions: L6 cell line from rat-skeletal myoblasts; means of two independent determinations ± absolute deviation; read-out: Cytotoxicity IC50
assayMetric: pIC50
The value called pIC50 is obtained by taking minus log10 of the concentration in mol/L.

Input: Report pIC50 for C=C(C)C(=O)OC1CC23OC2CCC(=CC2OC(=O)C(=C)C21)COC3O (stereo not drawn) [Compound 5, vernolide] please.
Output: 5.16

Input: Report pIC50 for COc1cc([C@@H]2c3cc4c(cc3[C@H](O)[C@H]3COC(=O)[C@H]23)OCO4)cc(OC)c1OC [podophyllotoxin, reference compound] please.
Output: 8.15

Input: Report pIC50 for C=C(C)C(=O)OC1CC23OC2CCC(=CC2OC(=O)C(C)C21)COC3O (stereo not drawn) [Compound 4, 11β,13-dihydrovernolide] please.
Output: 4.89

====

- runDescription: in vitro cytotoxicity against mammalian cells (L6)
- Format: cell-based, rat
- runConditions: rat
pIC50: −log10 of the molar value.
Classification field: YES = pIC50 at or over 5; NO = pIC50 under 5.

Input: Is pIC50 at least 5? Consider `C=C[C@@]12COC(=O)C(=C)[C@@H]1[C@H]1OC(=O)C(=C)[C@@H]1[C@@H](OC(=O)C(=C)CO)C2`
Output: YES

Input: Is pIC50 at least 5? Consider C=C(CO)C(=O)OC1CC23OC2CCC(=CC2OC(=O)C(C)C21)COC3O (stereo not drawn) [Compound 6, 11β,13-dihydrohydroxyvernolide]
Output: NO

Input: Is pIC50 at least 5? Consider C=C(CO)C(=O)O[C@H]1C[C@@]2(CO)O[C@@H]2CC/C(C=O)=C/[C@H]2OC(=O)C(=C)[C@H]12 [Compound 8, vernocinerascolide]
Output: NO

Input: Is pIC50 at least 5? Consider C=C[C@@]12COC(=O)C(=C)[C@@H]1[C@H]1OC(=O)[C@@H](C)[C@@H]1[C@@H](OC(=O)C(=C)CO)C2 [Compound 3, 11β,13-dihydrovernodalin]
Output: YES

Input: Is pIC50 at least 5? Consider C=C(CO)C(=O)OC1CC23OC2CCC(=CC2OC(=O)C(=C)C21)COC3O (centres unmarked) [Compound 7, hydroxyvernolide]
Output: NO
